Items are presented alongside their recorded pIC50.
# Measurement target: AKT1 WT (Homo sapiens (Human), UniProt P31749)
# Sequence (P31749 whole entry): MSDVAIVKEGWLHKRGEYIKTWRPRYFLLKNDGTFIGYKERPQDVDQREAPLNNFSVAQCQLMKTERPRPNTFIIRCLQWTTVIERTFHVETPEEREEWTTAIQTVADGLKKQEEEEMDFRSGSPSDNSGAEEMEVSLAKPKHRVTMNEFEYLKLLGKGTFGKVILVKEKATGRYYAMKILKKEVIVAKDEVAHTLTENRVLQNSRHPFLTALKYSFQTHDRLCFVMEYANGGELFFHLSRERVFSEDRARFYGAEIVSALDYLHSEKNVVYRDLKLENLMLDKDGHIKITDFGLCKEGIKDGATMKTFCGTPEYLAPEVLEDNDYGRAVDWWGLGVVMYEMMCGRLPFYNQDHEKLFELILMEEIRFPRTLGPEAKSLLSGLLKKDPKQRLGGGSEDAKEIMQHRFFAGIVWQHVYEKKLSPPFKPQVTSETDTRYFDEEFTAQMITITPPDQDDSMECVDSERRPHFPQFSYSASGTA
# Protocol description: Live cell target engagement (NanoBRET) in HEK293 cells
# Type: cell-based
# Condition parameters: HEK293, 2 hours at 37° C.
pIC50: −log10 of the molar value.

Look over these answered cases.
Smiles entry	Measurement target	pIC50
Nc1ncccc1-c1nc2ccc(-c3cccc(N4CCOCC4)c3)nc2n1-c1ccc(CNC(=O)Cc2ccc(C=O)c(O)c2)cc1	AKT1 WT (Homo sapiens (Human), UniProt P31749)	> 7.00
CC(=O)Nc1cc(CCNCc2ccc(-n3c(-c4cccnc4N)nc4cccnc43)cc2)ccc1C=O	AKT1 WT (Homo sapiens (Human), UniProt P31749)	> 7.00
Nc1ncccc1-c1nc2ccc(-c3cccnc3)nc2n1-c1ccc(CNCCc2ccc(C=O)c(O)c2)cc1	AKT1 WT (Homo sapiens (Human), UniProt P31749)	6.30 to 7.00
Nc1ncccc1-c1nc2ccc(-c3ccccc3)nc2n1-c1ccc(CNCCc2ccc(C=O)c(O)c2)cc1	AKT1 WT (Homo sapiens (Human), UniProt P31749)	> 7.00
Nc1ncccc1-c1nc2ccc(-c3cccnc3)nc2n1-c1ccc(CNC(=O)C2(c3ccc(C=O)c(O)c3)CC2)cc1	AKT1 WT (Homo sapiens (Human), UniProt P31749)	6.30 to 7.00

Read the entry `Cn1cc(-c2ccc3nc(-c4cccnc4N)n(-c4ccc(CNC(=O)Cc5ccc(C=O)c(O)c5)cc4)c3n2)cn1` and write its reported pIC50.
6.30 to 7.00
